Target: UniProt:Q99685
pIC50: −log10 of the molar value.
Binned pIC50; ranges: low class = under 7, middle class = from 7 up to 8, high class = 8 and over

- molecule: "O=C1CO[C@H]2CCN(C(=O)N3CCC(C#Cc4ncccc4Cl)CC3)C[C@H]2N1"
  test_system: "UniProt:Q99685"
  assigned_label: "low class"
- molecule: "O=C1CO[C@H]2CCN(C(=O)N3CC(C#Cc4cc(F)ccc4Cl)C3)C[C@H]2N1"
  test_system: "UniProt:Q99685"
  assigned_label: "middle class"
- molecule: "O=C1CO[C@H]2CCN(C(=O)N3CC(C#Cc4ccc(C(F)(F)F)cc4Cl)C3)C[C@H]2N1"
  test_system: "UniProt:Q99685"
  assigned_label: "high class"
- molecule: "O=C1CO[C@H]2CCN(C(=O)N3CC(C#Cc4c(F)cccc4Cl)C3)C[C@H]2N1"
  test_system: "UniProt:Q99685"
  assigned_label: "high class"
- molecule: "O=C1CO[C@H]2CCN(C(=O)N3CC(C#Cc4ccc(C(F)(F)F)c(Cl)c4)C3)C[C@H]2N1"
  test_system: "UniProt:Q99685"
  assigned_label: "high class"
- molecule: "CN(c1ccc(C(F)(F)F)cc1)C1CN(C(=O)N2CC[C@@H]3OCC(=O)N[C@@H]3C2)C1 (racemic)"
  test_system: "UniProt:Q99685"
  assigned_label: "low class"
- molecule: "O=C1CO[C@H]2CCN(C(=O)N3CC(C#Cc4ccccc4OC(F)F)C3)C[C@H]2N1"
  test_system: "UniProt:Q99685"
  assigned_label: "middle class"
- molecule: "O=C1CO[C@H]2CCN(C(=O)N3CC(C#Cc4c(Cl)cccc4Cl)C3)C[C@H]2N1"
  test_system: "UniProt:Q99685"
  assigned_label: "high class"
- molecule: "O=C1CO[C@H]2CCN(C(=O)N3CC([S+]([O-])c4ccc(C(F)(F)F)cc4Cl)C3)C[C@H]2N1 (mixture of isomers) [Example 145]"
  test_system: "UniProt:Q99685"
  assigned_label: "low class"

----------
Target sequence: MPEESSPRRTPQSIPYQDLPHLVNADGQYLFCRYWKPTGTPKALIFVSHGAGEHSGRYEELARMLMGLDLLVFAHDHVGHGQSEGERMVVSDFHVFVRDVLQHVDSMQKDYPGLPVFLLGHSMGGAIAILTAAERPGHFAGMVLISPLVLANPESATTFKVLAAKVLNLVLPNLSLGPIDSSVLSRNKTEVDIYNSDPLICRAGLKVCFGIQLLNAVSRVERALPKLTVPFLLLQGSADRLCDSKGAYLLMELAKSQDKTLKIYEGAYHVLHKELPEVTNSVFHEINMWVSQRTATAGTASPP

- compound_smiles: "O=C1CO[C@H]2CCN(C(=O)N3CC(C#Cc4ccccc4Cl)C3)C[C@H]2N1"
  IC50, nM: 9
- compound_smiles: "O=C1CO[C@H]2CCN(C(=O)N3CC(C#Cc4cccc(F)c4Cl)C3)C[C@H]2N1"
  IC50, nM: 16
- compound_smiles: "Cc1ccccc1C#CC1CN(C(=O)N2CC[C@@H]3OCC(=O)N[C@@H]3C2)C1"
  IC50, nM: 10
- compound_smiles: "COc1ccccc1C#CC1CN(C(=O)N2CC[C@@H]3OCC(=O)N[C@@H]3C2)C1"
  IC50, nM: 49
